Test system: T-47D breast
Assay: NCI tumour cell line growth inhibition, 48 h
The following compounds are listed with their measured TGI values.

{"compound": "CC(C)(C)c1cc(OCc2nn3c(Cc4ccccc4)nnc3s2)c(Cl)cc1OCc1nn2c(Cc3ccccc3)nnc2s1", "TGI": "> 100 µM"}
{"compound": "CC(N)(Cc1c[nH]c2cccc(F)c12)C(=O)O (centres undefined)", "TGI": "> 1000 µM"}
{"compound": "Cc1cc2c(cc1Cl)S/C(=C/C(=O)O)C(Nc1ccc3ncsc3c1)=NS2(=O)=O", "TGI": "> 54.8 µM"}

Then this compound:
Inquiry: Fill blank: measured TGI of the compound CC1=C(c2ccccc2)C(O)(c2ccccc2)C(C)C1=O (centres undefined) is ____.
Reply text: > 100 µM

Hello, the source for this data is PubChem BioAssay (NCI), in case you need it.
